Values compiled from ChEMBL document CHEMBL5107956.

- System: A549
- assay_text: Cytotoxicity against human A549 cells assessed as cell growth inhibition by MTT assay
- Type: functional, cell-based
value_kind: pIC50
Give only the number. pIC50 is defined as minus log10 of concentration in molar units.

compound	assay_target	pIC50
C=C1C(O)[C@@H]2/C=C/C[C@H](C)C(=O)[C@](C)(O)/C=C/OC(=O)O[C@]23C(=O)N[C@@H](Cc2ccc(OC)cc2)[C@@H]3[C@@H]1C (stereo partly drawn)	A549	6.33
COc1ccc(C[C@@H]2NC(=O)[C@@]34OC(=O)O/C=C/[C@@](C)(O)C(=O)[C@@H](C)C/C=C/[C@H]3[C@@H]3O[C@]3(C)[C@@H](C)[C@@H]24)cc1	A549	6.33

Form: compound = COc1ccc(C[C@@H]2NC(=O)[C@@]34OC(=O)O/C=C/[C@@](C)(O)C(=O)[C@@H](C)C/C=C/[C@H]3C(O)C(C)=C(C)[C@@H]24)cc1 (stereo partly drawn) ; pIC50 = 6.33

====

- assay_text: Toxicity in brine shrimp assessed as induction of lethality
- experimental_setup: artemia salina; read-out: LD50 (the source's name)
value_kind: LC50 (µg/mL)
Answer with a number only, understood to be in µg/mL.

These solved cases illustrate the format of a correct answer.
smiles_text	LC50 / µg/mL
CCC/C=C/[C@@H]1Cc2cc(O)c(C)c(O)c2C(=O)O1	18.6
CCCCC[C@@H]1Cc2cc(O)cc(O)c2C(=O)O1	36.4

Consider now this further compound.
Form: compound = CCCCC[C@@H]1Cc2cc(O)c(C)c(O)c2C(=O)O1 ; LC50 = 7.7

====

Documented IC50 across a set of molecules
- System: HL-60
- assay_text: Cytotoxicity against human HL-60 cells assessed as cell growth inhibition measured after 72 hrs by MTT assay
- Type: functional, cell-based
- experimental_setup: HL-60, 72 h
Answer with a number only, understood to be in µM.

These solved cases illustrate the format of a correct answer.
smiles_text	reported_value
CC1(C)C=Cc2c(ccc3c2[N+]([O-])=C2C3=C[C@@]34NC(=O)[C@]5(CCCN5C3=O)C[C@@H]4C2(C)C)O1	3.02
C/C=C/C1=CC(=O)[C@]2(C(=O)c3c(OC)cc(OC)cc3C(=O)OC)O[C@@H]2O1	3.7
C/C=C/C1=CC(=O)[C@@]2(C(=O)c3c(OC)cc(OC)cc3C(=O)OC)O[C@H]2O1	3.7

Form: molecule = CC1(C)C=Cc2c(ccc3c4c(n(O)c23)C(C)(C)[C@H]2C[C@]35CCCN3C(=O)[C@@]2(C4)NC5=O)O1 ; IC50 = 4.45

====

- Tested on: HL-60
- assay_text: Antiproliferative activity against human HL-60 cells assessed as cell growth inhibition measured after 72 hrs by CCK-8 assay
- Type: functional, cell-based
- experimental_setup: HL-60, 72 h
pIC50: −log10 of the molar value.
value_kind: pIC50

These solved cases illustrate the format of a correct answer.
smiles_text	pIC50
C/C=C/[C@H](O)[C@H](C)/C=C(C)/C=C/C/C(C)=C/Cc1[nH]c(OC)cc(=O)c1C	> 7.00
C/C=C/[C@H](O[C@H]1O[C@@H](CO)[C@H](O)[C@@H](O)[C@@H]1O)[C@H](C)/C=C(C)/C=C/C/C(C)=C/Cc1nc(OC)c(OC)c(O)c1C	5.89
C/C=C/[C@H](OC)[C@H](C)/C=C(C)/C=C/C/C(C)=C/Cc1nc(OC)c(OC)c(O)c1C	> 7.00
COc1nc(C/C=C(\C)C/C=C/C(C)=C/[C@@H](C)/C=C/[C@@H](C)OC)c(C)c(O)c1OC	> 7.00

Param item: COc1nc(C/C=C(\C)C/C=C/C(C)=C/[C@@H](C)/C=C(\C)[C@H](C)O)c(C)c(O)c1OC ; param system: HL-60; output pIC50: > 7.00

====

Documented IC50 across a set of compounds
- System: HCT-116
- assay_text: Cytotoxicity against human HCT-116 cells assessed as cell growth inhibition by SRB assay
- Format: functional, cell-based
Answer with a number only, understood to be in nM.

smiles_text	value_kind	reported_value
COc1cc(C)c2c(O)c3c(cc2c1)[C@@H](O)CCC3=O	IC50	630

Form: compound = Cc1cccc2cc3c(c(O)c12)C(=O)CC[C@@H]3O ; IC50 = 630

====

- assay_target: Prostaglandin G/H synthase 2 (Homo sapiens)
- assay_text: Inhibition of COX2 (unknown origin) at 20 nM relative to control
Documented inhibition across a set of molecules
Answer with a number only, understood to be in %.

molecule	assay_target	inhibition (%)
CC(C)=CCc1cc(C[C@@]2(CC=C(C)C)OC(=O)C(O)C2c2ccccc2)ccc1O (some centres undefined)	Prostaglandin G/H synthase 2 (Homo sapiens)	66.3
CC(C)=CCc1cc(C[C@@]2(C(=O)O)OC(=O)C(OC(C)(C)[C@@H](O)Cc3cc(C[C@@]4(C(=O)O)OC(=O)C(O)=C4c4ccc(O)cc4)ccc3O)=C2c2ccc(O)cc2)ccc1O	Prostaglandin G/H synthase 2 (Homo sapiens)	76.5

Form: molecule = CCOC(=O)[C@]1(Cc2ccccc2)OC(=O)C(O)C1c1ccc(O)cc1 (some centres undefined) ; inhibition = 98.3

====

- Tested on: Influenza A virus
- assay_text: Antiviral activity against Influenza A virus H1N1 by CPE inhibition assay
- Type: functional, organism-based
value_kind: pIC50
Give only the number. pIC50 is defined as minus log10 of concentration in molar units.

Form: compound = CC[C@@H](C)C1=C2NC(=O)[C@@](O)(C/C(=C\C=O)OC)C(=O)N2[C@H](C(C)C)C(=O)N1 ; pIC50 = 4.30

====

- Tested on: A2780
- assay_text: Cytotoxicity against human A2780 cells assessed as cell growth inhibition by MTT assay
- Type: functional, cell-based
value_kind: pIC50
Give only the number. pIC50 is defined as minus log10 of concentration in molar units.

Param item: C=C1CC[C@H]2C(C)(C)CCC[C@]2(C)[C@H]1C[C@@]12C[C@H]3C(=O)N(C)[C@@H](C(C)C)C(=O)N3[C@@H]1Nc1ccccc12 ; param system: A2780; output pIC50: 6.00

====

- Test system: K562
- assay_text: Cytotoxicity against human K562 cells assessed as inhibition of cell growth by MTT assay
- Assay type: functional, cell-based
value_kind: pIC50
Give only the number. pIC50 is defined as minus log10 of concentration in molar units.

Form: compound = C[C@@H]1OC(=O)[C@@H](O)[C@@H](C)OC(=O)[C@H](C)[C@H]1O ; pIC50 = 5.87

====

- assay_text: Antioxidant activity assessed as DPPH radical scavenging activity incubated for 30 mins under dark condition
- Type: functional
value_kind: pIC50
Give only the number. pIC50 is defined as minus log10 of concentration in molar units.

Form: compound = COc1c(O)c2c(c(O)c1CO)C(=O)OCC2 ; pIC50 = 4.59

====

- assay_target: Phosphotyrosine-protein phosphatase PTPB (Mycobacterium tuberculosis)
- Sequence (P96830 whole entry): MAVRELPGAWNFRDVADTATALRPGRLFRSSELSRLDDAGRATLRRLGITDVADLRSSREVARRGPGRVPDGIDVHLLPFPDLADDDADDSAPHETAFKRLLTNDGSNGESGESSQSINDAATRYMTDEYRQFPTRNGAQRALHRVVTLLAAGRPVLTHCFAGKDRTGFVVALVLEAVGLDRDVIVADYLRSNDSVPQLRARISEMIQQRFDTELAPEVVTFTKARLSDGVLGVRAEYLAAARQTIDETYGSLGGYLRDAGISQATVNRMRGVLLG
Documented pIC50 across a set of compounds
Give only the number. pIC50 is defined as minus log10 of concentration in molar units.

smiles_text	reported_value
CC(C)[C@@H](C)/C=C/[C@@H](C)[C@@]1(C)C[C@H]2C3=C4[C@@H](C=C5C[C@@H](O)CC[C@]5(C)[C@H]4CC[C@@]31C)[C@H](C(=O)O)[C@H]2C(=O)O	4.82

Consider now this further compound.
Param item: CC(C)[C@@H](C)/C=C\[C@@H](C)[C@@]1(C)C[C@H]2C3=C4[C@@H](C=C5C[C@@H](O)CC[C@]5(C)[C@H]4CC[C@@]31C)[C@H](C(=O)O)[C@H]2C(=O)O ; param system: Phosphotyrosine-protein phosphatase PTPB (Mycobacterium tuberculosis); output pIC50: 4.52

====

- Tested on: ACHN
- assay_text: Antiproliferative activity against human ACHN cells assessed as cell growth inhibition measured after 72 hrs by CCK-8 assay
- Type: functional, cell-based
value_kind: pIC50
Give only the number. pIC50 is defined as minus log10 of concentration in molar units.

Form: compound = C/C=C/[C@H](O[C@H]1O[C@@H](CO)[C@H](O)[C@@H](O)[C@@H]1O)[C@H](C)/C=C(C)/C=C/C/C(C)=C/Cc1nc(OC)c(OC)c(O)c1C ; pIC50 = 5.64
